test-system: DNA topoisomerase 2-alpha (Homo sapiens, UniProt P11388)
Sequence (P11388 whole entry): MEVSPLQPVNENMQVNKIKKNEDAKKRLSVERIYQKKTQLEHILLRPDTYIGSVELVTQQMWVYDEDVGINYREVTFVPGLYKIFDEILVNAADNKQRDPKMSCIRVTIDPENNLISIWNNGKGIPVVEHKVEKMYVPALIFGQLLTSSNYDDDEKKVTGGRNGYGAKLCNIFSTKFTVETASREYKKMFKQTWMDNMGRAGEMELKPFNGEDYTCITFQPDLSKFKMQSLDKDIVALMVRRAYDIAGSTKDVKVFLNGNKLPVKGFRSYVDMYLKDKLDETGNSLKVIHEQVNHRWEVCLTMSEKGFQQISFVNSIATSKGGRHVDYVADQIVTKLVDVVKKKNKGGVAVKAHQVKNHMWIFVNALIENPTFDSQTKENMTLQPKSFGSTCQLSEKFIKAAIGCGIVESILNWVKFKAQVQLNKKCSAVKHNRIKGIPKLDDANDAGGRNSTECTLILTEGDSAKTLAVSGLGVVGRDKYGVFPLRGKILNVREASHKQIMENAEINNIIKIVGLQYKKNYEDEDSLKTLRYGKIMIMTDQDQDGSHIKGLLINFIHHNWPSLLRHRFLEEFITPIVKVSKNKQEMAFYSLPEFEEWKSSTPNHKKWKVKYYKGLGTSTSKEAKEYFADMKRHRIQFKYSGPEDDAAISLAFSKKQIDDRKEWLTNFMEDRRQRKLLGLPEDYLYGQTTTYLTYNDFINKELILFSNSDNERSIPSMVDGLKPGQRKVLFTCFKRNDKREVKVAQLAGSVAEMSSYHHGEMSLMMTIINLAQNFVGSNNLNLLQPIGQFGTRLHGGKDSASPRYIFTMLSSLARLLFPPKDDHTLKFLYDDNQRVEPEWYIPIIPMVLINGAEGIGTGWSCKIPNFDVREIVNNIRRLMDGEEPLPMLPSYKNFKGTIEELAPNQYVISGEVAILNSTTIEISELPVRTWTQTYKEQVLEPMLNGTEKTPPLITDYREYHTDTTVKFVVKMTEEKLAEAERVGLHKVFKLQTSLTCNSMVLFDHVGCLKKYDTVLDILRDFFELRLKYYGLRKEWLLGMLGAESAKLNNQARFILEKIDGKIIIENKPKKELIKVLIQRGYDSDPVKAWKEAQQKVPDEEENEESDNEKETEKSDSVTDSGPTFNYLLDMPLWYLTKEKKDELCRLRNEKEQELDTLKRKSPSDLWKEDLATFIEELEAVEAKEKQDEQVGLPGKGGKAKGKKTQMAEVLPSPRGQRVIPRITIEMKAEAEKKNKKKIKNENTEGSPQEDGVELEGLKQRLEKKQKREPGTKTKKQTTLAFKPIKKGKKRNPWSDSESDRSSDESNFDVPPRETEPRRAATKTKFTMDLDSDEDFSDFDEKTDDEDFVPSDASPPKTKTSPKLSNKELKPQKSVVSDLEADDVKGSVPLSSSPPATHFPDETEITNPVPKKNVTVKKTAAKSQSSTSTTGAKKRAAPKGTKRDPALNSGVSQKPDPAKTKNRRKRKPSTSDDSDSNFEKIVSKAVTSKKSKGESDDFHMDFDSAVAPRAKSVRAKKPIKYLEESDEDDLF
experimental-protocol: Inhibition of human topoisomerase 2-alpha assessed as reduction in relaxation of pBR322 DNA measured after 30 mins by agarose gel electrophoresis method
Documented IC50 across a set of compounds
Write it as a number; the unit µM goes unstated.

O=C(/C=C/c1ccccc1)Nc1ccc(-c2ccc3cc(O)ccc3c2)cc1
3.3

Inquiry: What IC50 value was documented for this compound, `O=C(/C=C/c1ccccc1)Nc1ccc(/C=C/c2cc(O)cc(O)c2)cc1` ?
Reply text: 16.6

Inquiry: Data request, read-out IC50, for `O=C(CCc1ccccc1)Nc1ccc(-c2ccc3cc(O)ccc3c2)cc1`
Reply text: 3.8

Inquiry: Param item = `Oc1cc(O)cc(/C=C/c2cc(-c3ccoc3)ccc2O)c1` ; retrieve measured IC50.
Reply text: 59.8

The reported measurements were obtained from ChEMBL document CHEMBL5352412.
